Cited source for all entries: patent US20250320189A1

Target: mouse TRPM3α2 (mTRPM3) ion channel (Mus musculus, UniProt J9SQF3)
Sequence (J9SQF3 1-1709 isoform J9SQF3-12): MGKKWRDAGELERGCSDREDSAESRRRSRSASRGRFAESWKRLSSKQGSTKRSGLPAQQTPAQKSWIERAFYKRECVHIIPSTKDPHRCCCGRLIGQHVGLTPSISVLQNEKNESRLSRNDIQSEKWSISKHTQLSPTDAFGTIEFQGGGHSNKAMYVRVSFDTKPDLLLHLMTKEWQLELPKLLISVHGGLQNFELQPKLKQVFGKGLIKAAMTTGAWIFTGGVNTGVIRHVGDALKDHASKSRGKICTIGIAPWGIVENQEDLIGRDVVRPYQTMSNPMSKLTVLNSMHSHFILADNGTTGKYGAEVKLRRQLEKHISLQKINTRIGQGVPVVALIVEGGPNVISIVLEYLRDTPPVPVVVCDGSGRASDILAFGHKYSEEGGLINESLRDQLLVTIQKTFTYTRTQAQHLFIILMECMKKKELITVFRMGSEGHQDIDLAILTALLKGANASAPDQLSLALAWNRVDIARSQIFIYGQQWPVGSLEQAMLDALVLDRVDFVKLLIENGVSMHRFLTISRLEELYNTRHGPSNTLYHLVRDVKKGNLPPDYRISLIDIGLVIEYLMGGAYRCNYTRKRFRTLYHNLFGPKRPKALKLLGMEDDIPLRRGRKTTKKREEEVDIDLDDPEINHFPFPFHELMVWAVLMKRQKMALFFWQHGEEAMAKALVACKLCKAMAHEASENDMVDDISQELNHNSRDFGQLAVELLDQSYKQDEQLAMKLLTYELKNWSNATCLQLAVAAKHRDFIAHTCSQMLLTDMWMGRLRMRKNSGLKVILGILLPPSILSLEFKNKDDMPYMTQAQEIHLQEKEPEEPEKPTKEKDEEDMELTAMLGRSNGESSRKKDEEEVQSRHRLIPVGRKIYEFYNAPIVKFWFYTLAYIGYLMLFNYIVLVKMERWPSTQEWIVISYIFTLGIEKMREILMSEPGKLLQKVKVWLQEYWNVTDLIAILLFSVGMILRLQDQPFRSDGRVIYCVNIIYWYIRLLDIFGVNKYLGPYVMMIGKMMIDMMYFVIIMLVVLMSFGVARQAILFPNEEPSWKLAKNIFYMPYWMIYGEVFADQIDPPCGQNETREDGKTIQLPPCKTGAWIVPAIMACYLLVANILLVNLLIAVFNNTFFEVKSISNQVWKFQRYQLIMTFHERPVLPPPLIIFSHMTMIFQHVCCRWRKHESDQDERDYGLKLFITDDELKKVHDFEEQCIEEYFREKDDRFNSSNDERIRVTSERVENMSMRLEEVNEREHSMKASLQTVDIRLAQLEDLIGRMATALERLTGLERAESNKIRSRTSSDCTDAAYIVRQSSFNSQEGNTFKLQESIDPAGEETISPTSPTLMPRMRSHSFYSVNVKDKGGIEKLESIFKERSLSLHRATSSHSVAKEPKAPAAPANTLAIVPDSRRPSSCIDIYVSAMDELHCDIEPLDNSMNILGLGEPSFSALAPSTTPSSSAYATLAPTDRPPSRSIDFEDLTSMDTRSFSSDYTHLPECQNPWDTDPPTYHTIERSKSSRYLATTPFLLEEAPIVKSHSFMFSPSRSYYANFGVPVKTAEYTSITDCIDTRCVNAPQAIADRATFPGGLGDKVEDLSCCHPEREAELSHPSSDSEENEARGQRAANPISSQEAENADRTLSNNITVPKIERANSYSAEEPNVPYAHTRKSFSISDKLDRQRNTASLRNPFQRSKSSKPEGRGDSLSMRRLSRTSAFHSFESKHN
Assay: Monitoring the TRPM3 ion channel driven Ca2+ uptake (Fluo-4 AM assay)
Settings: mTRPM3alpha2 overexpressing flip-in HEK293 cells, stimulated with Pregnenolone sulfate (PS) 50 μM
pIC50: −log10 of the molar value.
Each entry below carries its reported pIC50.

Cc1oc2ccc(OCC3CC3)cc2c1C(=O)N[C@@H](C)C(N)=O ... > 6.00
Cc1oc2ccc(OCC3CCC3)cc2c1C(=O)N[C@@H](CO)C(N)=O ... > 6.00
Cc1oc2ccc(OCC3CC3)cc2c1C(=O)NC(C)(CO)CO ... > 6.00
Cc1oc2ccc(OCC3CC3)cc2c1C(=O)NC1(CO)CCNC1=O (single isomer, unassigned) [Cpd 028 - En1] ... > 6.00
Cc1oc2ccc(OCC(C)(C)C)cc2c1C(=O)N[C@@H](CO)C(N)=O ... > 6.00
Cc1oc2ccc(OCC3(C(F)(F)F)CC3)cc2c1C(=O)NC(C)(CO)C(N)=O (single isomer, unassigned) [Cpd 048 - En2] ... > 6.00

Qu. Report pIC50 for Cc1oc2ccc(OCCC3CC3)cc2c1C(=O)N[C@@H](CO)C(N)=O
Ans. > 6.00

Qu. Report pIC50 for Cc1oc2ccc(OCC3CC3)cc2c1C(=O)NC(C)(CO)CC(F)F (single isomer, unassigned) [Cpd 046 - En1]
Ans. > 6.00

Qu. Report pIC50 for Cc1oc2ccc(OCC3CC3(F)F)cc2c1C(=O)NC1CCNCC1(F)F (single isomer, unassigned) [Cpd 031 - En1]
Ans. 4.70 to 6.00

Qu. Report pIC50 for Cc1oc2ccc(OCC3(C(F)F)CC3)cc2c1C(=O)NC1(C(N)=O)CCOC1 (single isomer, unassigned) [Cpd 036 - En1]
Ans. 4.70 to 6.00

Qu. Report pIC50 for Cc1oc2ccc(OCC3CC3)cc2c1C(=O)NC1CCCNC1=O (single isomer, unassigned) [Cpd 055 - En2]
Ans. 4.70 to 6.00

Qu. Report pIC50 for Cc1oc2ccc(OCC3(C(F)(F)F)CC3)cc2c1C(=O)NC(C)(CO)C(N)=O (single isomer, unassigned) [Cpd 048 - En1]
Ans. > 6.00

Qu. Report pIC50 for Cc1oc2ccc(OCC3CC3)cc2c1C(=O)NC(CO)C(N)C(F)(F)F (single isomer, unassigned) [Cpd 056 - En1]
Ans. 4.70 to 6.00

Qu. Report pIC50 for Cc1oc2ccc(OCC3(C)CC3)cc2c1C(=O)NC1CCNCC1(F)F (single isomer, unassigned) [Cpd 032 - En1]
Ans. > 6.00

Qu. Report pIC50 for Cc1oc2ccc(OCC(C)(C)C)cc2c1C(=O)NC1CCNCC1(F)F (single isomer, unassigned) [Cpd 043-En2]
Ans. 4.70 to 6.00

###

Biological target: mouse TRPM3α2 (mTRPM3) ion channel (Mus musculus, UniProt J9SQF3)
Assay: Monitoring the TRPM3 ion channel driven Ca2+ uptake (Fluo-4 AM assay)
Conditions: mTRPM3alpha2 overexpressing flip-in HEK293 cells, stimulated with Pregnenolone sulfate (PS) 50 μM
Method: In order to monitor the inhibition of the mouse TRPM3α2 (mTRPM3) ion channel by the compounds of the invention, a cellular system making use of an mTRPM3alpha2 or hTRPM3 overexpressing cell line (flip-in HEK293) was used. […] For mTRPM3, the intracellular Ca^2+ was measured with a Calcium responsive dye, Fluor-4 AMV ester (Invitrogen). […] Channel inhibition was calculated compared to a non-PS stimulated control versus a condition stimulated with PS (50 μM) with vehicle. […]
pIC50: −log10 of the molar value.
VALUE_TYPE: pIC50

Cc1oc2ccc(OCC3CC3(C)C)cc2c1C(=O)NC1CCNCC1(F)F (single isomer, unassigned) [Cpd 033-En3] ... > 6.00
Cc1oc2ccc(OCC3(C(F)(F)F)CC3)cc2c1C(=O)NC1(C)CCCNC1=O (single isomer, unassigned) [Cpd 061 - En2] ... 4.70 to 6.00
Cc1oc2ccc(OCC3CC3(F)F)cc2c1C(=O)N[C@@H](CO)C(N)=O (single isomer, unassigned) [Cpd 002 - En1] ... > 6.00
Cc1oc2ccc(OC[C@H]3C[C@H](C)C3)cc2c1C(=O)NC(C)(CO)C(N)=O (single isomer, unassigned) [Cpd 059 - En1] ... > 6.00

Qu. Report pIC50 for Cc1oc2ccc(OCC3CC3)cc2c1C(=O)NC(CO)C(N)C(F)(F)F (single isomer, unassigned) [Cpd 056 - En3]
Ans. > 6.00

Qu. Report pIC50 for Cc1oc2ccc(OCC3(C(F)F)CC3)cc2c1C(=O)NC(C)(CO)C(N)=O (single isomer, unassigned) [Cpd 014 - En2]
Ans. > 6.00

Qu. Report pIC50 for Cc1oc2ccc(OCC3CCC3)cc2c1C(=O)N[C@@H](C)C(N)=O
Ans. > 6.00
